- target-or-test-system: anti-CD28 scFv (VH - linker 1 - VL) (biotinylated (captured on neutravidin coated plates))
- Sequence (scFv, as listed by the source): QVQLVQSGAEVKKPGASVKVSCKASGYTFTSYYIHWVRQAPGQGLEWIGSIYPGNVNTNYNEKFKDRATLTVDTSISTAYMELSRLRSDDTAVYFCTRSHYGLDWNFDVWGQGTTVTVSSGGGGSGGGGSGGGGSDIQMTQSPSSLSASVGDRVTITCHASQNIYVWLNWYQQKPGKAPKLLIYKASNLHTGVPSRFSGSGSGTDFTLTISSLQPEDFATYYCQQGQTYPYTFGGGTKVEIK
- assay-details: clonal phage ELISA; biotinylated anti-CD28 scFv on neutravidin plate, phage detected with anti-M13-HRP;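 note: crude clonal phage supernatants added to wells preincubated with blocking buffer alone or blocking buffer plus soluble CD28 protein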
Listed binders paired with reported CD28 scFv signal

binder: MDWCPPYLWSECFA [Phage-238]
CD28 scFv signal: 2.6

binder: MDWCPKVMWHYCFA [Phage-250]
CD28 scFv signal: 1.14

binder: MDWCPRDRWSDCFN [Phage-227]
CD28 scFv signal: 0.102

binder: MDWCPRHLWYECFN [Phage-243]
CD28 scFv signal: 2.41

binder: MDWCPRNMWHHCFD [Phage-248]
CD28 scFv signal: 1.6

binder: MDWCPKHLWNKCFN [Phage-246]
CD28 scFv signal: 1.16

binder: MDWCPSDMWAHCYN [Phage-249]
CD28 scFv signal: 1.21

binder: VPWCQIISGLECLT [Phage-229]
CD28 scFv signal: 0.174
